Cited source for all entries: PubChem BioAssay (NCI)

tested on: U251 CNS
assay metric: GI50

Here are 5 compounds together with their reported answers.
CCn1c(-c2nonc2N)nc2c(C#CCN)ncc(OCCCN)c21
> 25 µM
NC(CO)Cc1cnc[nH]1 (stereo not drawn)
> 100 µM
N#Cc1c(-c2cccs2)c2c(=S)[nH]c(=S)[nH]c2[nH]c1=S
30.2 µM
Cc1ccn2c3c(c(C(=O)O)c2c1)C(=O)c1ccccc1C3=O
15.7 µM
COc1ccc(-c2cc(-c3cc(Cl)ccc3Cl)nc3[nH]c(-c4cc(F)c(Cl)cc4Cl)cc(=O)c23)cc1
21.8 µM

[Q] Which GI50 value is on record for CCCCCCCCCC[C@@H](O)[C@H]1CC[C@H]([C@H]2CC[C@H]([C@H](O)CCCCCCCCCC[C@@H]3CC(CC(C)=O)C(=O)O3)O2)O1 (stereo partly drawn) ?
[A] 7.12 µM

[Q] Which GI50 value is on record for N#CC(=C1SCS1)[N+](=O)[O-] ?
[A] 2.37 µM

[Q] Which GI50 value is on record for C=C1C(=O)O[C@H]2[C@H]1CC/C(CNC(=O)c1c[nH]c3ccc(F)cc13)=C\CC[C@@]1(C)O[C@@H]21 ?
[A] 2.68 µM

[Q] Which GI50 value is on record for C[C@@H]1CC[C@@H]2[C@@H]1[C@H](OC(=O)/C=C/c1ccccc1)[C@]1(c3ccccc3)C[C@@H](OC(=O)CO)[C@@]2(C)O1 ?
[A] 14.2 µM

[Q] Which GI50 value is on record for Cc1cc2nc3c4cc(Cl)ccc4n(CCN(C)C)c3nc2cc1C ?
[A] 1.43 µM
